B1: HDV Ribozyme (parent)
chain: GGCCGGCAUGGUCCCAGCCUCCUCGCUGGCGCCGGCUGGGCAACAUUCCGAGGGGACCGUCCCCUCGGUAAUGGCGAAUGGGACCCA

- Variants of: B1
- protocol description: self-cleavage, relative activity (ratio to wild type); higher = more cleavage; co-transcriptional

>  <variant notation>
U9C U69G

>  <self-cleavage>
1.22

$$$$
>  <variant notation>
C18G A70G

>  <self-cleavage>
0.161

$$$$
>  <variant notation>
U20A C62G

>  <self-cleavage>
0.0639

$$$$
>  <variant notation>
A43C G81C

>  <self-cleavage>
0.0773

$$$$
>  <variant notation>
C18A C41A

>  <self-cleavage>
0.125

$$$$
>  <variant notation>
C58U G76U

>  <self-cleavage>
1.02

$$$$
>  <variant notation>
G6A U27C

>  <self-cleavage>
0.268

$$$$

Measured values drawn from the RNAGym collection of RNA variant scans (doi:10.7554/elife.80360) for this set.
